# ASSAYED SYSTEM: T1, cynomolgus soluble urokinase plasminogen activator receptor (suPAR) (cynomolgus, UniProt Q9GK78 23-303, limits assumed)
# T1 construct: Target antigen of the off-rate screen; also called cynomolgus uPAR; cynomolgus suPAR
# T1 sequence (Q9GK78 23-303 limits assumed): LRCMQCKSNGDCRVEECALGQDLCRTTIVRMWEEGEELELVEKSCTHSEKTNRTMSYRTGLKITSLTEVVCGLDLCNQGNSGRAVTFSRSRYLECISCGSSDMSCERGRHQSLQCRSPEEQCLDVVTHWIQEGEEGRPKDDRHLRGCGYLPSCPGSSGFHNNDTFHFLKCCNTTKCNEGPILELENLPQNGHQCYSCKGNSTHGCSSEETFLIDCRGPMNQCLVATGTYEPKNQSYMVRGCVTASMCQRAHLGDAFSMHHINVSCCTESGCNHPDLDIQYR
# TEST DESCRIPTION: off-rate (kdis) screen of scFv clones, biosensor (Octet)
Lab note: anything with koff at or over 0.0003 s⁻¹ counts as TRUE; the rest go in FALSE.

BINDER | CATEGORY LABEL
suPAR_DB01_B11 (scFv, V domains shown, screened as scFv) VH: QVQLVQSGAEVKKPGASVKVSCKASGYTFTDYYMHWVRQAPGQGLEWMGWIDHENGSTSYDQKFQGRVTMTRDTSTSTVYMELSSLRSEDTAVYYCARGYDVDWFVYWGQGTLVTVSS VL: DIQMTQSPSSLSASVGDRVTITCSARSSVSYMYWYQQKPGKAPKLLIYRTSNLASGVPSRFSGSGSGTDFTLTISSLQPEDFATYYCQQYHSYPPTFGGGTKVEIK | FALSE
suPAR_DB01_E11 (scFv, V domains shown, screened as scFv) VH: QVQLVQSGAEVKKPGASVKVSCKASGYTFTNYYMHWVRQAPGQGLEWMGWIDHENGSTIYAQKFQGRVTMTRDTSTSTVYMELSSLRSEDTAVYYCARGYDVDWFVYWGQGTLVTVSS VL: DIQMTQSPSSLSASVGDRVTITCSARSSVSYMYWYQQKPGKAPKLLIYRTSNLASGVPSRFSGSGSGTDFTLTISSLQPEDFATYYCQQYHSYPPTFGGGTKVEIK | TRUE
suPAR_DB01_C07 (scFv, V domains shown, screened as scFv) VH: QVQLVQSGAEVKKPGASVKVSCKASGYTFTSYYMHWVRQAPGQGLEWMGWIDHENGSTSYDQKFQGRVTMTRDTSTSTVYMELSSLRSEDTAVYYCARGYDVDWFVYWGQGTLVTVSS VL: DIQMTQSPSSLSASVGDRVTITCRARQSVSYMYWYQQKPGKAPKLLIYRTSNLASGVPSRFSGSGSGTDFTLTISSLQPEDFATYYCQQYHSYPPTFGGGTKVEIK | FALSE
suPAR_DB01_A07 (scFv, V domains shown, screened as scFv) VH: QVQLVQSGAEVKKPGASVKVSCKASGGTFTSYYMHWVRQAPGQGLEWMGWIDHENGSTSYDQKFQGRVTMTRDTSTSTVYMELSSLRSEDTAVYYCARGYDVDWFVYWGQGTLVTVSS VL: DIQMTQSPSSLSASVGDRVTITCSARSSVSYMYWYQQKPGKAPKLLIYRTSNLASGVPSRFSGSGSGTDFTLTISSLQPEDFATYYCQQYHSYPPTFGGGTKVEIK | TRUE
suPAR_DB01_E08 (scFv, V domains shown, screened as scFv) VH: QVQLVQSGAEVKKPGASVKVSCKASGYTFTGYYIHWVRQAPGQGLEWMGWIDHENGSTIYDQKFQGRVTMTRDTSTSTVYMELSSLRSEDTAVYYCARGYDVDWFVYWGQGTLVTVSS VL: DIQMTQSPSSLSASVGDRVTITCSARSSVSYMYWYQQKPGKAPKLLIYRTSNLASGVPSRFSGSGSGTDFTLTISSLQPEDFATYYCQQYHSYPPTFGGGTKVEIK | FALSE
suPAR_DB01_C01 (scFv, V domains shown, screened as scFv) VH: QVQLVQSGAEVKKPGASVKVSCKASGYTFTGYYMHWVRQAPGQGLEWMGWIDHENGNTIYDQKFQGRVTMTRDTSTSTVYMELSSLRSEDTAVYYCARGYDVDWFVYWGQGTLVTVSS VL: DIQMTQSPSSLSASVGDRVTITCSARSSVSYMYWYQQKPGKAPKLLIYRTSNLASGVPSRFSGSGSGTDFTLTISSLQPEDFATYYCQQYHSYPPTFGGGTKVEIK | FALSE
